biological target: MGL activity in HeLa cell homogenate (Homo sapiens, UniProt Q99685); construct: HeLa cells were homogenated with a Polytron; endogenous in cells; host or cells: HeLa cell homogenate; assay: 2-AG Accumulation Assay in HeLa cell homogenate; assay type: biochemical; conditions: compound 10 μM, accumulated 2-AG relative to MAFP 2-AG x100
Sequence (Q99685 whole entry): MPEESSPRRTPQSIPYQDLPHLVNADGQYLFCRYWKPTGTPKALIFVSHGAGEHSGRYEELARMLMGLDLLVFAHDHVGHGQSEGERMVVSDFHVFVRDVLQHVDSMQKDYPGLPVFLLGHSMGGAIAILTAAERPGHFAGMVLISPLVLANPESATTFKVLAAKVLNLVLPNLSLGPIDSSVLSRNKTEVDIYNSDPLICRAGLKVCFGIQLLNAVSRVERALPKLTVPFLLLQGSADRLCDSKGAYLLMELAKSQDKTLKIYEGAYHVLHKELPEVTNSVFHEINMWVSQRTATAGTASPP
Values of Example 4 % MAFP @ 10 μM strictly less than 70 % MAFP map to Met, and values of at least 70 % MAFP map to Not met.

- STRUCTURE_NOTATION: "COc1ccccc1N1CCN(C2CN(C(=O)c3ccc4c(c3)cc(COc3ccccc3)n4CC(C)(C)C)C2)CC1"
  CLASS: "Met"
- STRUCTURE_NOTATION: "CC(C)(C)c1nc2ccc(C(=O)N3CC(N4CCN(c5ccccn5)CC4)C3)cc2o1"
  CLASS: "Met"
- STRUCTURE_NOTATION: "COCC(=O)c1c(-c2ccc(C)cc2)[nH]c2ccc(C(=O)N3CC(N4CCN(c5ccccn5)CC4)C3)cc12"
  CLASS: "Not met"
- STRUCTURE_NOTATION: "CC(C)(C)Cn1c(-c2ccccc2)cc2cc(C(=O)N3CC(N4CCN(c5ccccn5)CC4)C3)ccc21"
  CLASS: "Not met"
- STRUCTURE_NOTATION: "CCCc1cc2cc(C(=O)N3CC(N4CCN(c5ccccn5)CC4)C3)ccc2n1CC1CCCCC1"
  CLASS: "Not met"

Challenge: For CC(C)Cn1c(-c2ccccc2)cc2cc(C(=O)N3CC(N4CCN(c5ccccn5)CC4)C3)ccc21 , is the recorded Example 4 % MAFP @ 10 μM below the cut-off of 70 % MAFP?
Response given: Not met

Challenge: Request: CC(C)Cc1cc2cc(C(=O)N3CC(N4CCN(c5ccccn5)CC4)C3)ccc2n1CC(C)C
Response given: Not met
